- TESTED SYSTEM: Calcitonin gene-related peptide type 1 receptor (Homo sapiens, UniProt O60894+Q16602)
- Sequence (Q16602 whole entry, one chain of several): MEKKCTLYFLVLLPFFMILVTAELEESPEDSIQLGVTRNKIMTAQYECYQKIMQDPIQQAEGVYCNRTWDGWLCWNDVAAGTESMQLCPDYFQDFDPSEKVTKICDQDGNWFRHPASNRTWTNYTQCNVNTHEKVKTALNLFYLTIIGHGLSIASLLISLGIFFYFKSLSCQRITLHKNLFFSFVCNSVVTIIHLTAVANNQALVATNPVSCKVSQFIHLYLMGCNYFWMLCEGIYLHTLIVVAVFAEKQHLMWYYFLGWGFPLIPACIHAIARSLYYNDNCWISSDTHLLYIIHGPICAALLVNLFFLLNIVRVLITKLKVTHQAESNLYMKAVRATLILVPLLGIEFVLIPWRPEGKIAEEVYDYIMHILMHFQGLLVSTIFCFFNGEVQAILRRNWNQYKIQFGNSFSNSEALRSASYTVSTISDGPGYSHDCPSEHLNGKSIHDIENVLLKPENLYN
- ASSAY EXPLANATION: Displacement of [I125]CGRP from CGRP receptor in human SK-N-MC cell membrane after 2 hrs by gamma or scintillation counting
- Type: cell membranes
VALUE KIND: pIC50
Numbers only, as −log10 of the molar value.

// known answers, use as guide
Task: Respond only with pIC50 recorded for Cc1cc(CC(OC(=O)N2CCC(N3CCc4ccccc4NC3=O)CC2)c2cc(C(=O)N(C)C)cc(Cl)n2)cc2cn[nH]c12 (stereo not drawn)
Result: 10.03

Task: Read off the recorded pIC50 for Cc1cc(CC(NC(=O)N2CCC(N3Cc4ccccc4NC3=O)CC2)c2ccccn2)cc2cn[nH]c12 (stereo not drawn)
Result: 8.51

Task: Supply reported pIC50 belonging to this molecule: Cc1cc(CC(OC(=O)N2CCC(N3Cc4ccccc4NC3=O)CC2)c2ccccn2)cc2c(CN3CCOCC3)n[nH]c12 (stereo not drawn)
Result: 8.72

Task: Report measured pIC50; entry is Cc1cc(CC(NC(=O)N2CCC(N3Cc4ccccc4NC3=O)CC2)c2ccc3ccccc3n2)cc2cn[nH]c12 (stereo not drawn)
Result: 8.70

Hi there! I need pIC50 for each item below, if you can.
1. Cc1cc(CC(OC(=O)N2CCC(c3cc4ccccc4[nH]c3=O)CC2)c2cc(CN3CCOCC3)ccn2)cc2cn[nH]c12 (stereo not drawn)
2. Cc1cc(CC(OC(=O)N2CCC(N3Cc4ccccc4NC3=O)CC2)c2ccccn2)cc2c(CN3CCCCC3)n[nH]c12 (stereo not drawn)
3. Cc1cc(CC(OC(=O)N2CCC(c3cc4ccccc4[nH]c3=O)CC2)c2cc(CN3CCCCC3)ccn2)cc2cn[nH]c12 (stereo not drawn)
4. Cc1cc(CC(NC(=O)N2CCC(N3Cc4ccccc4NC3=O)CC2)c2cccc(Br)n2)cc2cn[nH]c12 (stereo not drawn)

Result:
[8.92, 8.18, 9.80, 9.31]

---

- TESTED SYSTEM: Calcitonin gene-related peptide type 1 receptor (Homo sapiens, UniProt O60894+Q16602)
- ASSAY EXPLANATION: Antagonist activity at CGRP receptor in human SK-N-MC cells assessed as inhibition of CGRP-stimulated cAMP production
- Format: functional, cell-based
VALUE KIND: IC50 (nM)
Give bare numbers, in nM.

// known answers, use as guide
Task: Supply IC50 value. Item: Cc1cc(CC(OC(=O)N2CCC(N3Cc4ccccc4NC3=O)CC2)c2cc(C(=O)O)ccn2)cc2cn[nH]c12 (stereo not drawn)
Result: 28

Task: Give a short answer stating reported IC50 for Cc1cc(CC(NC(=O)N2CCC(N3Cc4ccccc4NC3=O)CC2)c2cccc(Br)n2)cc2cn[nH]c12 (stereo not drawn) .
Result: 0.82

Task: Name the recorded IC50 of the item Cc1cc(CC(NC(=O)N2CCC(N3Cc4ccccc4NC3=O)CC2)c2ccc3ccccc3n2)cc2cn[nH]c12 (stereo not drawn) in your answer.
Result: 1.4

Task: Answer with reported IC50 of Cc1cc(CC(OC(=O)N2CCC(N3Cc4ccccc4NC3=O)CC2)c2cc3ccccc3cn2)cc2cn[nH]c12 (stereo not drawn)
Result: 0.63

Task: Recall and state the measured IC50 for CCc1ccnc(C(CC(=O)N2CCC(N3Cc4ccccc4NC3=O)CC2)Cc2cc(C)c3[nH]ncc3c2)c1 (stereo not drawn) .
Result: 13

Task: Could you please provide reported IC50 for Cc1cccc(C(Cc2cc(C)c3[nH]ncc3c2)NC(=O)N2CCC(N3Cc4ccccc4NC3=O)CC2)n1 (stereo not drawn) ? Thanks!
Result: 3.4

Task: Specify IC50 for Cc1cc(CC(OC(=O)N2CCC(N3Cc4ccccc4NC3=O)CC2)c2ccccn2)cc2cn[nH]c12 (stereo not drawn) and stop.
Result: 1.9

Task: For the molecule Cc1cc(CC(CC(=O)N2CCC(N3Cc4ccccc4NC3=O)CC2)c2ccc(CN3CCCCC3)cn2)cc2cn[nH]c12 (stereo not drawn) , report IC50.
Result: 1.3

Task: Please supply the value of reported IC50 for the item Cc1cc(CC(OC(=O)N2CCC(N3Cc4ccccc4NC3=O)CC2)c2cccc(Br)n2)cc2cn[nH]c12 (stereo not drawn)
Result: 0.46

Task: For the molecule Cc1cc(CC(OC(=O)N2CCC(c3cc4ccccc4[nH]c3=O)CC2)c2cc(CN3CCCCC3)ccn2)cc2cn[nH]c12 (stereo not drawn) , give its reported IC50.
Result: 0.1

Okay, here is my list. What is IC50 for each of these?
1. Cc1cc(C[C@@H](OC(=O)N2CCC(c3cc4ccccc4[nH]c3=O)CC2)c2cc(C(=O)N(C)C)cc(Cl)n2)cc2cn[nH]c12
2. Cc1cc(CC(NC(=O)N2CCC(N3Cc4ccccc4NC3=O)CC2)c2ccccn2)cc2cn[nH]c12 (stereo not drawn)
3. Cc1cc(CC(CC(=O)N2CCC(c3cc4ccccc4[nH]c3=O)CC2)c2ccccn2)cc2cn[nH]c12 (stereo not drawn)
4. Cc1cc(CC(NC(=O)N2CCC(N3Cc4ccccc4NC3=O)CC2)c2cc3ccccc3cn2)cc2cn[nH]c12 (stereo not drawn)
5. Cc1cc(CC(OC(=O)N2CCC(N3Cc4ccccc4NC3=O)CC2)c2cc(C(=O)N3CCCCC3)ccn2)cc2cn[nH]c12 (stereo not drawn)

Result:
1. 0.064
2. 4.1
3. 30
4. 1
5. 0.099

---

- ASSAY EXPLANATION: Permeability across human Caco2 cells
- Assay type: ADME, cell-based
- CONDITIONS: Caco-2, read-out: permeability
VALUE KIND: Papp (×10⁻⁶ cm/s)
One number for each entry, in ×10⁻⁶ cm/s.

Task: Hello, please tell me recorded Papp for this one: Cc1ccc(C(CC(=O)N2CCC(N3Cc4ccccc4NC3=O)CC2)Cc2cc(C)c3[nH]ncc3c2)nc1 (stereo not drawn)
Result: 6.4

Task: Tell us which Papp value is on record for Cc1cc(CC(OC(=O)N2CCC(c3cc4ccccc4[nH]c3=O)CC2)c2cc(CN3CCOCC3)ccn2)cc2cn[nH]c12 (stereo not drawn)
Result: 9.9

Task: Respond only with Papp recorded for Cc1cc(CC(CC(=O)N2CCC(N3Cc4ccccc4NC3=O)CC2)c2ccccn2)cc2cn[nH]c12 (stereo not drawn)
Result: 12

Task: Retrieve Papp measured for Cc1cc(CC(OC(=O)N2CCC(c3cc4ccccc4[nH]c3=O)CC2)c2cc(CN3CCCCC3)ccn2)cc2cn[nH]c12 (stereo not drawn) and print it.
Result: 8.5

Task: Provide Papp value for the following compound: Cc1cc(CC(OC(=O)N2CCC(c3cc4ccccc4[nH]c3=O)CC2)c2cc(CN3CCCC3)ccn2)cc2cn[nH]c12 (stereo not drawn)
Result: 4.9

Task: Fill in Papp for record Cc1cc(CC(CC(=O)N2CCC(N3Cc4cccc(F)c4NC3=O)CC2)c2ccccn2)cc2cn[nH]c12 (stereo not drawn)
Result: 21

Now take the following compound into account.
Task: Please give measured Papp of the following entry: CCc1ccnc(C(CC(=O)N2CCC(N3Cc4ccccc4NC3=O)CC2)Cc2cc(C)c3[nH]ncc3c2)c1 (stereo not drawn)
Result: 14

---

- Tested on: Liver microsomes
- ASSAY EXPLANATION: Metabolic stability in rat liver microsomes
- Type: ADME, Microsome
VALUE KIND: Stability

Recorded Stability, per entry:
Task: Look up and report Stability, with Liver microsomes as system, for Cc1cc(CC(OC(=O)N2CCC(c3cc4ccccc4[nH]c3=O)CC2)c2cc(CN3CCCCC3)ccn2)cc2cn[nH]c12 (stereo not drawn)
Result: Unstable

Task: Give Stability; test system Liver microsomes; compound Cc1cc(CC(OC(=O)N2CCC(N3Cc4ccccc4NC3=O)CC2)c2cc(C#N)ccn2)cc2cn[nH]c12 (stereo not drawn)
Result: Unstable

Task: State measured Stability of the compound Cc1cc(CC(OC(=O)N2CCC(c3cc4ccccc4[nH]c3=O)CC2)c2cc(CN3CCCC3)ccn2)cc2cn[nH]c12 (stereo not drawn) with Liver microsomes.
Result: Unstable

Task: Fill in Stability for Cc1cc(CC(OC(=O)N2CCC(c3cc4ccccc4[nH]c3=O)CC2)c2cc(CN3CCOCC3)ccn2)cc2cn[nH]c12 (stereo not drawn) tested with Liver microsomes.
Result: Unstable

For each of the compounds below, note its Stability.
1. COC(=O)c1ccnc(C(Cc2cc(C)c3[nH]ncc3c2)OC(=O)N2CCC(N3Cc4ccccc4NC3=O)CC2)c1 (stereo not drawn)
2. Cc1cc(CC(OC(=O)N2CCC(N3Cc4ccccc4NC3=O)CC2)c2cc(-c3ccncc3)ccn2)cc2cn[nH]c12 (stereo not drawn)
3. Cc1cc(CC(OC(=O)N2CCC(N3Cc4ccccc4NC3=O)CC2)c2cc(C(=O)O)ccn2)cc2cn[nH]c12 (stereo not drawn)
4. Cc1cc(CC(OC(=O)N2CCC(N3Cc4ccccc4NC3=O)CC2)c2cc(C(=O)N(C)C)ccn2)cc2cn[nH]c12 (stereo not drawn)
5. Cc1cc(CC(OC(=O)N2CCC(N3Cc4ccccc4NC3=O)CC2)c2cccc(Br)n2)cc2cn[nH]c12 (stereo not drawn)
6. Cc1cc(CC(OC(=O)N2CCC(N3Cc4ccccc4NC3=O)CC2)c2ccccn2)cc2cn[nH]c12 (stereo not drawn)
7. Cc1cc(CC(OC(=O)N2CCC(c3cc4ccccc4[nH]c3=O)CC2)c2ccccn2)cc2cn[nH]c12 (stereo not drawn)
8. Cc1cc(CC(OC(=O)N2CCC(N3Cc4ccccc4NC3=O)CC2)c2cc(C(=O)N3CCCCC3)ccn2)cc2cn[nH]c12 (stereo not drawn)

Result:
1. Unstable
2. Unstable
3. Unstable
4. Unstable
5. Unstable
6. Unstable
7. Unstable
8. Unstable
